Tested on: Plasmodium falciparum
EXPERIMENTAL PROTOCOL: Antiplasmodial activity against Plasmodium falciparum 3D7 at 1 ug/mL
Format: functional, organism-based
The source made the active and inactive calls. No cut-off for these calls is given here.
PROPERTY MEASURED: Activity

Consider the reported Activity for these compounds:
[[record]]
compound = "CC(=O)O[C@H]1C[C@@H]2[C@H]([C@H](O)[C@]3(C=COC3=O)[C@@H]2C)[C@@]2(C)CCCC(C)(C)[C@H]12"
system_under_test = "Plasmodium falciparum"
property_measured = "Activity"
measured = "inactive"

[[record]]
compound = "CC(=O)O[C@H]1C[C@H]2[C@@H](C)C3=CC(=O)O[C@@H]3C[C@@H]2[C@@]2(C)CCCC(C)(C)[C@H]12 [12-DEOXY-SUCUTINIRANE A]"
system_under_test = "Plasmodium falciparum"
property_measured = "Activity"
measured = "inactive"

[[record]]
compound = "CC(=O)O[C@H]1C[C@H]2[C@@H](C)C3=CC(=O)O[C@]3(O)C[C@@H]2[C@@]2(C)CCCC(C)(C)[C@H]12 [SUCUTINIRANE A]"
system_under_test = "Plasmodium falciparum"
property_measured = "Activity"
measured = "inactive"

[[record]]
compound = "CC(=O)O[C@H]1C[C@@H]([C@@H](C)C2=CC(=O)OC2)[C@H](C=O)[C@@]2(C)CCCC(C)(C)[C@H]12"
system_under_test = "Plasmodium falciparum"
property_measured = "Activity"
measured = "inactive"


Req: What value of Activity has been recorded for this entry: `CC(=O)O[C@H]1C[C@H]2[C@@H](C)c3ccoc3C[C@@H]2[C@@]2(C)CCCC(C)(C)[C@H]12`
Resp: inactive
